- Tested on: NCI-H196 complex spheroid growth, percent test/control
- test-description: Anticancer human tumor NCI-H196 cell line growth inhibition [AhR]
- condition-set: second compound 1 µM; first compound 3.16 µM; hits give low values
property-label: viability, T/C (%)

>>> value("CC(C)c1c(-c2ccccc2)nc2c(C#N)c[nH]n2c1=O + CC(CO)NC(=O)c1cc(-c2ccc(Cl)cc2)nn(-c2cnn(C)c2)c1=O")
118
>>> value("CC1COCCN1c1cc(C2(S(C)(=N)=O)CC2)nc(-c2ccnc3[nH]ccc23)n1 (stereo unspecified) + Cc1ccccc1N=Nc1ccc(NC(=O)c2ccnn2C)c(C)c1")
87.7
>>> value("CC(C)c1c(-c2ccccc2)nc2c(C#N)c[nH]n2c1=O + Cc1ccccc1N=Nc1ccc(NC(=O)c2ccnn2C)c(C)c1")
99.3
>>> value("NS(=O)(=O)OCC1CC(n2ccc3c(NC4CCc5ccccc54)ncnc32)CC1O (stereo unspecified) + CC(CO)NC(=O)c1cc(-c2ccc(Cl)cc2)nn(-c2cnn(C)c2)c1=O")
61.2
>>> value("COc1cccc2c1C(=O)c1c(O)c3c(c(O)c1C2=O)CC(O)(C(=O)CO)CC3OC1CC(N)C(O)C(C)O1 (stereo unspecified) + Cc1ccccc1N=Nc1ccc(NC(=O)c2ccnn2C)c(C)c1")
2.43
>>> value("O=C(C=Cc1cccc(S(=O)(=O)Nc2ccccc2)c1)NO + Cc1ccccc1N=Nc1ccc(NC(=O)c2ccnn2C)c(C)c1")
23.7

====

- Tested on: NCI-H196 complex spheroid growth, percent test/control
- test-description: Anticancer human tumor NCI-H196 cell line growth inhibition [AhR]; active = viability on the fitted dose curve at most 10% of control; inactive = the rest;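 also: seven days of drug exposure starting three days after plating; 100% = DMSO vehicle control wells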
- condition-set: second compound 10 µM; first compound 10 µM
Outcome codes: T (active), F (inactive)

>>> answer_label("CC1COCCN1c1cc(C2(S(C)(=N)=O)CC2)nc(-c2ccnc3[nH]ccc23)n1 (stereo unspecified) + Cc1cncc(-c2nc(NCCc3c[nH]c4ccccc34)c3ncn(C(C)C)c3n2)c1")
"F"
>>> answer_label("COc1cc(C2c3cc4c(cc3C(OC3OC5COC(C)OC5C(O)C3O)C3COC(=O)C23)OCO4)cc(OC)c1O (stereo unspecified) + CC(CO)NC(=O)c1cc(-c2ccc(Cl)cc2)nn(-c2cnn(C)c2)c1=O")
"F"
>>> answer_label("CC1COCCN1c1cc(C2(S(C)(=N)=O)CC2)nc(-c2ccnc3[nH]ccc23)n1 (stereo unspecified) + CC(CO)NC(=O)c1cc(-c2ccc(Cl)cc2)nn(-c2cnn(C)c2)c1=O")
"F"
>>> answer_label("COc1cc(C2c3cc4c(cc3C(OC3OC5COC(C)OC5C(O)C3O)C3COC(=O)C23)OCO4)cc(OC)c1O (stereo unspecified) + Cc1ccccc1N=Nc1ccc(NC(=O)c2ccnn2C)c(C)c1")
"F"
>>> answer_label("CC1(C)CCC(CN2CCN(c3ccc(C(=O)NS(=O)(=O)c4ccc(NCC5CCOCC5)c([N+](=O)[O-])c4)c(Oc4cnc5[nH]ccc5c4)c3)CC2)=C(c2ccc(Cl)cc2)C1 + CC(CO)NC(=O)c1cc(-c2ccc(Cl)cc2)nn(-c2cnn(C)c2)c1=O")
"F"
>>> answer_label("O=C(C=Cc1cccc(S(=O)(=O)Nc2ccccc2)c1)NO + Cc1ccccc1N=Nc1ccc(NC(=O)c2ccnn2C)c(C)c1")
"T"
>>> answer_label("Nc1ccn(C2OC(CO)C(O)C2(F)F)c(=O)n1 (stereo unspecified) + Cc1ccccc1N=Nc1ccc(NC(=O)c2ccnn2C)c(C)c1")
"F"
>>> answer_label("O=C(c1cc(Cc2n[nH]c(=O)c3ccccc23)ccc1F)N1CCN(C(=O)C2CC2)CC1 + CC(CO)NC(=O)c1cc(-c2ccc(Cl)cc2)nn(-c2cnn(C)c2)c1=O")
"F"
>>> answer_label("Nc1ccccc1NC(=O)c1ccc(CNC(=O)OCc2cccnc2)cc1 + Cc1ccccc1N=Nc1ccc(NC(=O)c2ccnn2C)c(C)c1")
"T"
>>> answer_label("NS(=O)(=O)OCC1CC(n2ccc3c(NC4CCc5ccccc54)ncnc32)CC1O (stereo unspecified) + CC(CO)NC(=O)c1cc(-c2ccc(Cl)cc2)nn(-c2cnn(C)c2)c1=O")
"F"
>>> answer_label("CC(C)c1c(-c2ccccc2)nc2c(C#N)c[nH]n2c1=O + Cc1ccccc1N=Nc1ccc(NC(=O)c2ccnn2C)c(C)c1")
"F"

====

- Tested on: NCI-H196 complex spheroid growth, percent test/control
- test-description: Anticancer human tumor NCI-H196 cell line growth inhibition [AhR];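 also: seven days of drug exposure starting three days after plating; 100% = DMSO vehicle control wells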
- condition-set: second compound 1 µM; first compound 0.1 µM; hits give low values
- Source text: Multicellular complex tumor spheroid response to aryl hydrocarbon receptor antagonists in combination with a variety of drugs and investigational agents in selected tumor cell lines […] Compounds. […] If the clinical Cmax for an agent had not been determined, the highest concentration tested was 10 microM (Table 1). […]
Item-by-item account of viability, T/C
property-label: viability, T/C (%)

>>> value("Cn1ncnc1C1c2n[nH]c(=O)c3cc(F)cc(c23)NC1c1ccc(F)cc1 (stereo unspecified) + Cc1ccccc1N=Nc1ccc(NC(=O)c2ccnn2C)c(C)c1")
106
>>> value("COc1cc(C2c3cc4c(cc3C(OC3OC5COC(C)OC5C(O)C3O)C3COC(=O)C23)OCO4)cc(OC)c1O (stereo unspecified) + CC(CO)NC(=O)c1cc(-c2ccc(Cl)cc2)nn(-c2cnn(C)c2)c1=O")
106
>>> value("COc1ccc([C@@H](O)c2cc(-c3ncnc4cc(N5CCOCC5)ccc34)c(F)cc2Cl)nn1 + Cc1ccccc1N=Nc1ccc(NC(=O)c2ccnn2C)c(C)c1")
88
>>> value("CC1COCCN1c1cc(-c2ccnn2C)c2ccnc(-c3ccn[nH]3)c2n1 (stereo unspecified) + CC(CO)NC(=O)c1cc(-c2ccc(Cl)cc2)nn(-c2cnn(C)c2)c1=O")
90.8
>>> value("CC1(C)CCC(CN2CCN(c3ccc(C(=O)NS(=O)(=O)c4ccc(NCC5CCOCC5)c([N+](=O)[O-])c4)c(Oc4cnc5[nH]ccc5c4)c3)CC2)=C(c2ccc(Cl)cc2)C1 + Cc1cncc(-c2nc(NCCc3c[nH]c4ccccc34)c3ncn(C(C)C)c3n2)c1")
101
>>> value("COc1cccc2c1C(=O)c1c(O)c3c(c(O)c1C2=O)CC(O)(C(=O)CO)CC3OC1CC(N)C(O)C(C)O1 (stereo unspecified) + Cc1ccccc1N=Nc1ccc(NC(=O)c2ccnn2C)c(C)c1")
105
>>> value("Nc1ncn(C2CC(O)C(CO)O2)c(=O)n1 (stereo unspecified) + Cc1ccccc1N=Nc1ccc(NC(=O)c2ccnn2C)c(C)c1")
101
>>> value("CC(C)c1c(-c2ccccc2)nc2c(C#N)c[nH]n2c1=O + CC(CO)NC(=O)c1cc(-c2ccc(Cl)cc2)nn(-c2cnn(C)c2)c1=O")
114
>>> value("COc1ccc([C@@H](O)c2cc(-c3ncnc4cc(N5CCOCC5)ccc34)c(F)cc2Cl)nn1 + CC(CO)NC(=O)c1cc(-c2ccc(Cl)cc2)nn(-c2cnn(C)c2)c1=O")
106
>>> value("CC1COCCN1c1cc(-c2ccnn2C)c2ccnc(-c3ccn[nH]3)c2n1 (stereo unspecified) + Cc1cncc(-c2nc(NCCc3c[nH]c4ccccc34)c3ncn(C(C)C)c3n2)c1")
79.4
>>> value("CC1(C)CCC(CN2CCN(c3ccc(C(=O)NS(=O)(=O)c4ccc(NCC5CCOCC5)c([N+](=O)[O-])c4)c(Oc4cnc5[nH]ccc5c4)c3)CC2)=C(c2ccc(Cl)cc2)C1 + CC(CO)NC(=O)c1cc(-c2ccc(Cl)cc2)nn(-c2cnn(C)c2)c1=O")
98.8

====

- System: NCI-H196 complex spheroid growth, percent test/control
- test-description: Anticancer human tumor NCI-H196 cell line growth inhibition [AhR];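 also: seven days of drug exposure starting three days after plating; 100% = DMSO vehicle control wells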
- condition-set: second compound 0.316 µM; first compound 0.0949 µM; hits give low values
viability, T/C values, listed per item
property-label: viability, T/C

>>> value("Nc1ncn(C2CC(O)C(CO)S2)c(=O)n1 (stereo not drawn) + Cc1ccccc1N=Nc1ccc(NC(=O)c2ccnn2C)c(C)c1")
"101%"
>>> value("CC(C)CC(NC(=O)C(Cc1ccccc1)NC(=O)c1cnccn1)B(O)O (stereo not drawn) + CC(CO)NC(=O)c1cc(-c2ccc(Cl)cc2)nn(-c2cnn(C)c2)c1=O")
"2.62%"
>>> value("CCc1c2c(nc3ccc(O)cc13)-c1cc3c(c(=O)n1C2)COC(=O)[C@]3(O)CC + Cc1cncc(-c2nc(NCCc3c[nH]c4ccccc34)c3ncn(C(C)C)c3n2)c1")
"77.2%"

====

Examples of compounds with documented viability, T/C follow.
- System: NCI-H196 complex spheroid growth, percent test/control
- test-description: Anticancer human tumor NCI-H196 cell line growth inhibition [AhR];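 also: seven days of drug exposure starting three days after plating; 100% = DMSO vehicle control wells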
- condition-set: second compound 0.1 µM; first compound 0.1 µM; hits give low values
property-label: viability, T/C (%)

>>> value("Nc1ncn(C2CC(O)C(CO)O2)c(=O)n1 (centres undefined) + CC(CO)NC(=O)c1cc(-c2ccc(Cl)cc2)nn(-c2cnn(C)c2)c1=O")
106
>>> value("CC(C)c1c(-c2ccccc2)nc2c(C#N)c[nH]n2c1=O + Cc1ccccc1N=Nc1ccc(NC(=O)c2ccnn2C)c(C)c1")
104
>>> value("Nc1ncn(C2CC(O)C(CO)O2)c(=O)n1 (centres undefined) + Cc1ccccc1N=Nc1ccc(NC(=O)c2ccnn2C)c(C)c1")
94.4
>>> value("Nc1ccccc1NC(=O)c1ccc(CNC(=O)OCc2cccnc2)cc1 + CC(CO)NC(=O)c1cc(-c2ccc(Cl)cc2)nn(-c2cnn(C)c2)c1=O")
81.1
